# Test system: M. luteus
# test_summary: Kill or inhibit growth/proliferation; morphology, biofilm and growth disruption (Tables 5, 6); also: test concentration or dose not given here
# Assay type: cell-based, Micrococcus luteus
# Set-up: key: A: Peptide aggregates; B: Less hyphal formation; Clumps; Diffuse clumps and small polyps; F: Diffuse growth; H: Thin; I: Growth inhibition; Microcolony formation; Rippled; Small polyps; Thick; W: Halo formation on top, microlonies on bottom
reported_property: Organism, effect

Example substances with recorded Organism, effect:
substance: PF-010: peptide having multiple activities (chain 1 MDIDVNKLLQAFVYFKSFEKLRHNNS; chain 2 MDIDVNKLLQAFVYFKSFEKLRHNNS; Peptide with targeting and/or antimicrobial activity)
measured_target: M. luteus
Organism, effect: M. luteus (A)
//
substance: PF-067: peptide having multiple activities (DLIVKVHICFVVKTASGYCYLNKREAQAAI; Peptide with targeting and/or antimicrobial activity)
measured_target: M. luteus
Organism, effect: M. luteus (R)
//
substance: PF-562: peptide having multiple activities (chain 1 TPEQWLERSTVVVTGLLNRK; chain 2 TPEQWLERSTVVVTGLLNRK; Peptide with targeting and/or antimicrobial activity)
measured_target: M. luteus
Organism, effect: M. luteus (R)
//
substance: GSVIKKRRKRMAKKKHRKLLKKTRIQRRRAGK [PF-527]
measured_target: M. luteus
Organism, effect: M. luteus (S)
//
substance: PF-025: peptide having multiple activities (chain 1 LLIIFRLWLELKWKNKK; chain 2 LLIIFRLWLELKWKNKK; Peptide with targeting and/or antimicrobial activity)
measured_target: M. luteus
Organism, effect: M. luteus (A)

Reported Organism, effect ( PF-001: peptide having multiple activities (chain 1 MNNWIIVAQLSVTVINEIIDIMKEKQKGGK; chain 2 MNNWIIVAQLSVTVINEIIDIMKEKQKGGK; Peptide with targeting and/or antimicrobial activity) ) = M. luteus (C)

Reported Organism, effect ( PF-199 (FPAFSFGAIAGSVSVAR; Peptide with targeting and/or antimicrobial activity) ) = M. luteus (A)

* * *

# Test system: microorganisms (e.g., bacteria, yeasts, fungi)
# test_summary: Targeting peptide binding to target microorganisms (Table 3)
# study_conditions: peptide binding in aqueous buffers varied by peptide solubility; preferably 1x PBS
reported_property: Target(s) (microorganisms bound by the targeting peptide)

Example substances with recorded Target(s) (microorganisms bound by the targeting peptide):
substance: PF-646 (chain 1 APASPGRRPG; chain 2 APASPGRRPG; Peptide with targeting and/or antimicrobial activity)
result: Mycobacteria spp
--
substance: PF-720 (SLDMGK; Peptide with targeting and/or antimicrobial activity)
result: S. mutans
--
substance: PF-795 (ALHKSGIQVIADWVPDQIYN; Peptide with targeting and/or antimicrobial activity)
result: S. mutans
--
substance: PF-668 (chain 1 TNAESMALAFRGRVHMSVNIAGLT; chain 2 TNAESMALAFRGRVHMSVNIAGLT; Peptide with targeting and/or antimicrobial activity)
result: Mycobacteria spp

Now turn to the next substance.
Case PF-704 (chain 1 APAARAAL; chain 2 APAARAAL; Peptide with targeting and/or antimicrobial activity) , microorganisms (e.g., bacteria, yeasts, fungi), Target(s) (microorganisms bound by the targeting peptide) recorded as Mycobacteria spp

* * *

# Test system: microorganisms (e.g., bacteria, yeasts, fungi)
# test_summary: Targeting peptide binding to target microorganisms (Table 3)
# study_conditions: microorganism(s) the targeting peptide binds; binding in aqueous buffers depending on peptide solubility, preferably 1x PBS
reported_property: Target(s)

substance: PF-247 (ETAASETH; Peptide with targeting and/or antimicrobial activity)
result: S. epidermidis
--
substance: PF-385: peptide having multiple activities (chain 1 MIKKSILKIKYYVPVLISLTLILSA; chain 2 MIKKSILKIKYYVPVLISLTLILSA; Peptide with targeting and/or antimicrobial activity)
result: S. epidermidis

* * *

# Test system: microorganisms
# test_summary: Peptides having multiple activities (targeting/binding, antimicrobial, growth or phenotype altering)
reported_property: Activities

Example substances with recorded Activities:
substance: PF-139: peptide having multiple activities (ALSKPAIQARTLCRRQDPP; Peptide with targeting and/or antimicrobial activity)
measured_target: microorganisms
reported_property: Activities
result: G B

substance: PF-596: peptide having multiple activities (SKMWDKILTILILILELIRELIKL; Peptide with targeting and/or antimicrobial activity)
measured_target: microorganisms
reported_property: Activities
result: G B

substance: PF-548: peptide having multiple activities (chain 1 ARPIADLIHFNSTTVTASGDVYYGPG; chain 2 ARPIADLIHFNSTTVTASGDVYYGPG; Peptide with targeting and/or antimicrobial activity)
measured_target: microorganisms
reported_property: Activities
result: G B

substance: PDAPRTCYHKPILAALSRIVVTDR [PF-524]
measured_target: microorganisms
reported_property: Activities
result: G B M

substance: PF-196: peptide having multiple activities (TTARYIRRQCHTSITPLSQG; Peptide with targeting and/or antimicrobial activity)
measured_target: microorganisms
reported_property: Activities
result: G B

Now turn to the next substance.
Reported Activities ( PF-045: peptide having multiple activities (chain 1 LDINDYRSTY; chain 2 LDINDYRSTY; Peptide with targeting and/or antimicrobial activity) ) = G B

* * *

# Test system: microorganisms (e.g., bacteria, yeasts, fungi)
# test_summary: Targeting peptide binding to target microorganisms (Table 3)
# study_conditions: microorganism(s) the targeting peptide binds; binding in aqueous buffers depending on peptide solubility, preferably 1x PBS
reported_property: Target(s)

substance: PF-282 (QNNDTSAWCGSAHKNGNS; Peptide with targeting and/or antimicrobial activity)
measured_target: microorganisms (e.g., bacteria, yeasts, fungi)
result: S. mutans
//
substance: PF-329 (IGILFDKSVRKY; Peptide with targeting and/or antimicrobial activity)
measured_target: microorganisms (e.g., bacteria, yeasts, fungi)
result: S. epidermidis
//
substance: PF-333 (YMTKKLVEMAEQQMAGKSNR; Peptide with targeting and/or antimicrobial activity)
measured_target: microorganisms (e.g., bacteria, yeasts, fungi)
result: S. mutans
//
substance: PF-101 (DPVPERQEQACACHRTAKPGK; Peptide with targeting and/or antimicrobial activity)
measured_target: microorganisms (e.g., bacteria, yeasts, fungi)
result: S. mutans
//
substance: VWENRKKYLENEIERHNVFLKLGQEVIKGLNALASRGR [PF-257]
measured_target: microorganisms (e.g., bacteria, yeasts, fungi)
result: S. epidermidis

Reported Target(s) ( PF-154 (GIKKSKHPSTDDYVVKTTIDSL; Peptide with targeting and/or antimicrobial activity) ) = S. mutans

* * *

# Tested on: microorganisms
# test_summary: Peptides having multiple activities (targeting/binding, antimicrobial, growth or phenotype altering)

substance: PF-467: peptide having multiple activities (chain 1 YYKDYFKEI; chain 2 YYKDYFKEI; Peptide with targeting and/or antimicrobial activity)
Activities: G B
--
substance: PF-145: peptide having multiple activities (GIVLTGRAGLVSGACSMALGVGLG; Peptide with targeting and/or antimicrobial activity)
Activities: G B
--
substance: PF-065: peptide having multiple activities (LEKNTRDNYFIHAIDRIYINTSKGLFPESELVAWG; Peptide with targeting and/or antimicrobial activity)
Activities: G B

* * *

# Tested on: MRSA
# test_summary: Kill or inhibit growth/proliferation; morphology, biofilm and growth disruption (Tables 5, 6); also: test concentration or dose not given here
# Type: cell-based, Methicillin-resistant Staphylococcus aureus
# Set-up: key: A: Peptide aggregates; B: Less hyphal formation; Clumps; Diffuse clumps and small polyps; F: Diffuse growth; H: Thin; I: Growth inhibition; Microcolony formation; Rippled; Small polyps; Thick; W: Halo formation on top, microlonies on bottom

substance: PF-430: peptide having multiple activities (AVVCGYLAYTATS; Peptide with targeting and/or antimicrobial activity)
Organism, effect: MRSA (M)
--
substance: PF-406: peptide having multiple activities (YLEMNADYLSNMDIFDELWEKYLENNK; Peptide with targeting and/or antimicrobial activity)
Organism, effect: MRSA (M)
--
substance: PF-381: peptide having multiple activities (chain 1 QGANPCQQVGFTVNDPDCRLAKTV; chain 2 QGANPCQQVGFTVNDPDCRLAKTV; Peptide with targeting and/or antimicrobial activity)
Organism, effect: MRSA (C)
--
substance: PF-413: peptide having multiple activities (TFAGSIKIGVPDLVHVTFNCKR; Peptide with targeting and/or antimicrobial activity)
Organism, effect: MRSA (C)

* * *

# Test system: S. pneumoniae
# test_summary: Kill or inhibit growth/proliferation; morphology, biofilm and growth disruption (Tables 5, 6); also: test concentration or dose not given here
# Format: cell-based, Streptococcus pneumoniae
# Parameters: key: A: Peptide aggregates; B: Less hyphal formation; Clumps; Diffuse clumps and small polyps; F: Diffuse growth; H: Thin; I: Growth inhibition; Microcolony formation; Rippled; Small polyps; Thick; W: Halo formation on top, microlonies on bottom
Ends that are not written are not given here.
reported_property: Organism, effect

substance: PF-625: peptide having multiple activities (SDSTNNARTRKKARDVTTKDIDK; Peptide with targeting and/or antimicrobial activity)
Organism, effect: S. pneumoniae (H)
--
substance: LSEMERRRLRKRA-NH2 [PF-529]
Organism, effect: S. pneumoniae (H)
--
substance: PF-476: peptide having multiple activities (chain 1 WADAQYKLCENCSE; chain 2 WADAQYKLCENCSE; Peptide with targeting and/or antimicrobial activity)
Organism, effect: S. pneumoniae (H)
--
substance: PDAPRTCYHKPILAALSRIVVTDR [PF-524]
Organism, effect: S. pneumoniae (M)
--
substance: PF-543: peptide having multiple activities (chain 1 NILFGIIGFVVAMTAAVIVTAISIAK; chain 2 NILFGIIGFVVAMTAAVIVTAISIAK; Peptide with targeting and/or antimicrobial activity)
Organism, effect: S. pneumoniae (D)
--
substance: FELVDWLETNLGKILKSKSA-NH2 [PF-522]
Organism, effect: S. pneumoniae (H)
--
substance: PF-411: peptide having multiple activities (WVAVAILLNIALQTQLT; Peptide with targeting and/or antimicrobial activity)
Organism, effect: S. pneumoniae (D)
--
substance: PF-432: peptide having multiple activities (FNGDSEFFLCIAF; Peptide with targeting and/or antimicrobial activity)
Organism, effect: S. pneumoniae (D)

Now turn to the next substance.
Reported Organism, effect ( PF-514: peptide having multiple activities (chain 1 QRFYKLFYHIDLTNEQALKLFQVK; chain 2 QRFYKLFYHIDLTNEQALKLFQVK; Peptide with targeting and/or antimicrobial activity) ) = S. pneumoniae (M)
